Cited source: paper PMC8826081

# testMethodNotes: Pharmacokinetic properties in CD-1 mice
# Assay type: in vivo
# runConditions: mouse, plasma, single intravenous dose of 30 mg/kg
metricName: clearance (mL/min/kg)
Field format: number, assumed mL/min/kg, no unit text.

Q: Consider the molecule C[C@@H]1CC[C@H]2[C@@H](C)C(OCCCN3C(=O)C(=NO)c4ccccc43)O[C@@H]3O[C@@]4(C)CC[C@@H]1[C@]32OO4 (some centres unmarked) and give its measured clearance.
Ans: 62.3

Q: Consider the molecule C[C@@H]1CC[C@H]2[C@@H](C)C(OCCCN3C(=O)C(=NNC(N)=S)c4cc(F)ccc43)O[C@@H]3O[C@@]4(C)CC[C@@H]1[C@]32OO4 (some centres unmarked) and give its measured clearance.
Ans: 44.8

###

# testMethodNotes: Pharmacokinetic properties in CD-1 mice
# Type: in vivo
# runConditions: mouse, plasma, single intravenous dose of 30 mg/kg, read-out: tmax (peak time) (converted)
Examples of compounds with documented Tmax follow.
Quick note: unit goes after the number.

compound	result
C[C@@H]1CC[C@H]2[C@@H](C)C(OCCCN3C(=O)C(=NO)c4ccccc43)O[C@@H]3O[C@@]4(C)CC[C@@H]1[C@]32OO4 (some centres unmarked)	16 min

Q: Consider the compound C[C@@H]1CC[C@H]2[C@@H](C)C(OCCCN3C(=O)C(=NNC(N)=S)c4cc(F)ccc43)O[C@@H]3O[C@@]4(C)CC[C@@H]1[C@]32OO4 (some centres unmarked) and give its measured Tmax.
Ans: 12 min

###

# Test system: A549/DDP (cisplatin-resistant A549 cells)
# testMethodNotes: MTT antiproliferative activity against cisplatin-resistant A549
# Assay type: cell-based
# runConditions: IC50(A549/DDP)/IC50(A549)
Returns: string. Value is t if measured RI2 (Resistance index: IC50(A549/DDP)/IC50(A549)) is below 1, and f if it is greater than or equal to it.

compound	assignedClass
C[C@@H]1CC[C@H]2[C@@H](C)C(OCCCN3C(=O)C(=NNC(N)=S)c4cc(F)ccc43)O[C@@H]3O[C@@]4(C)CC[C@@H]1[C@]32OO4 (stereo partly drawn)	f
Cc1ccc2c(c1)C(=NO)C(=O)N2CCCOC1O[C@@H]2O[C@@]3(C)CC[C@H]4[C@H](C)CC[C@@H]([C@H]1C)[C@@]24OO3 (stereo partly drawn)	t
C[C@@H]1CC[C@H]2[C@@H](C)C(OCCCN3C(=O)C(=O)c4cc(Cl)ccc43)O[C@@H]3O[C@@]4(C)CC[C@@H]1[C@]32OO4 (stereo partly drawn)	f
C[C@@H]1CC[C@H]2[C@@H](C)C(OCCCN3C(=O)C(=NO)c4cc(Cl)ccc43)O[C@@H]3O[C@@]4(C)CC[C@@H]1[C@]32OO4 (stereo partly drawn)	f

Q: Please indicate whether the reported RI2 (Resistance index: IC50(A549/DDP)/IC50(A549)) of C[C@H]1[C@@H](O)O[C@@H]2O[C@@]3(C)CC[C@H]4[C@H](C)CC[C@@H]1[C@@]24OO3 [DHA, Dihydroartemisinin] is strictly below 1.
Ans: f

Q: Please indicate whether the reported RI2 (Resistance index: IC50(A549/DDP)/IC50(A549)) of COc1ccc2c(c1)C(=NNC(N)=S)C(=O)N2CCCOC1O[C@@H]2O[C@@]3(C)CC[C@H]4[C@H](C)CC[C@@H]([C@H]1C)[C@@]24OO3 (stereo partly drawn) is strictly below 1.
Ans: t

Q: Please indicate whether the reported RI2 (Resistance index: IC50(A549/DDP)/IC50(A549)) of COc1ccc2c(c1)C(=NO)C(=O)N2CCCOC1O[C@@H]2O[C@@]3(C)CC[C@H]4[C@H](C)CC[C@@H]([C@H]1C)[C@@]24OO3 (stereo partly drawn) is strictly below 1.
Ans: f

Q: Please indicate whether the reported RI2 (Resistance index: IC50(A549/DDP)/IC50(A549)) of C[C@@H]1CC[C@H]2[C@@H](C)C(OCCCN3C(=O)C(=NNC(N)=S)c4ccccc43)O[C@@H]3O[C@@]4(C)CC[C@@H]1[C@]32OO4 (stereo partly drawn) is strictly below 1.
Ans: f

Q: Please indicate whether the reported RI2 (Resistance index: IC50(A549/DDP)/IC50(A549)) of Cc1ccc2c(c1)C(=NNC(N)=S)C(=O)N2CCCOC1O[C@@H]2O[C@@]3(C)CC[C@H]4[C@H](C)CC[C@@H]([C@H]1C)[C@@]24OO3 (stereo partly drawn) is strictly below 1.
Ans: t
